- Test system: 997726-040-R-J2-PDC tumor spheroids, viability
- method.notes: Anticancer human tumor 997726-040-R-J2-PDC patient-derived squamous cell lung carcinoma cell line growth inhibition [PI3K]
- conditions: second compound 0.0316 µM; first compound 0.0316 µM; stronger effect = lower value; spheroids with HUVEC and MSC
Rule for this label: MET means viability, T/C is less than 80%; NOT MET means viability, T/C is at least 80%.

compound	class.name
CC(=O)c1c(C)c2cnc(Nc3ccc(N4CCNCC4)cn3)nc2n(C2CCCC2)c1=O + Cc1nc(NC(=O)N2CCCC2C(N)=O)sc1-c1ccnc(C(C)(C)C(F)(F)F)c1	MET
C=CC(=O)N1CCN(c2nc(=O)n(-c3c(C)ccnc3C(C)C)c3nc(-c4c(O)cccc4F)c(F)cc23)C(C)C1 (stereo not given) + Cc1nc(NC(=O)N2CCCC2C(N)=O)sc1-c1ccnc(C(C)(C)C(F)(F)F)c1	NOT MET
CCCS(=O)(=O)Nc1ccc(F)c(C(=O)c2c[nH]c3ncc(-c4ccc(Cl)cc4)cc23)c1F + Cc1nc(NC(=O)N2CCCC2C(N)=O)sc1-c1ccnc(C(C)(C)C(F)(F)F)c1	NOT MET
C=CC(=O)N1CCN(c2nc(=O)n(-c3c(C)ccnc3C(C)C)c3nc(-c4c(O)cccc4F)c(F)cc23)C(C)C1 (stereo not given) + CC(Nc1ccc2c(c1)OCCn1cc(N3C(=O)OCC3C(F)F)nc1-2)C(N)=O	MET

----------
- Tested on: 997726-040-R-J2-PDC tumor spheroids, viability
- method.notes: Anticancer human tumor 997726-040-R-J2-PDC cell line growth inhibition [PI3K];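 further: spheroids exposed to compounds for seven days before readout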
- conditions: second compound 0.0316 µM; first compound 0.3 µM; stronger effect = lower value; spheroids with HUVEC and MSC
Listed here: items and their measured viability, T/C.
experimental.endpoint: viability, T/C

>>> df
                                   molecule  experimental_endpoint  endpoint_value
0  Cn1cnc2c(F)c(Nc3ccc(Br)cc3Cl)c(C(=O)NOCCO)cc21 + CC(Nc1ncnc2nc[nH]c12)c1cc2cccc(Cl)c2c(=O)n1-c1ccccc1         viability, T/C           54.2%
1  Cn1cnc2c(F)c(Nc3ccc(Br)cc3Cl)c(C(=O)NOCCO)cc21 + Cc1nc(NC(=O)N2CCCC2C(N)=O)sc1-c1ccnc(C(C)(C)C(F)(F)F)c1         viability, T/C           41.7%
2  Cn1cnc2c(F)c(Nc3ccc(Br)cc3Cl)c(C(=O)NOCCO)cc21 + COc1c(OCCCN2CCOCC2)ccc2c3n(c(=NC(=O)c4cnc(N)nc4)nc12)CCN3         viability, T/C           24.6%
3  Cn1cnc2c(F)c(Nc3ccc(Br)cc3Cl)c(C(=O)NOCCO)cc21 + CC(Nc1ccc2c(c1)OCCn1cc(N3C(=O)OCC3C(F)F)nc1-2)C(N)=O         viability, T/C           30.2%

----------
Quick reference: viability, T/C of the listed items.
- Tested on: 997726-040-R-J2-PDC tumor spheroids, viability
- method.notes: Anticancer human tumor 997726-040-R-J2-PDC cell line growth inhibition [PI3K];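 further: spheroids exposed to compounds for seven days before readout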
- conditions: second compound 1 µM; first compound 0.316 µM; stronger effect = lower value; spheroids with HUVEC and MSC
experimental.endpoint: viability, T/C (%)

molecule	endpoint.unit	endpoint.value
Cn1nccc1Nc1nccc(-c2ccn(C(CO)c3ccc(Cl)c(F)c3)c(=O)c2)n1 (stereo not given) + Cc1nc(NC(=O)N2CCCC2C(N)=O)sc1-c1ccnc(C(C)(C)C(F)(F)F)c1	%	32.7
Cn1ncc(Cl)c1-c1cc(C(=O)NC(CN)Cc2cccc(F)c2)sc1Cl (stereo not given) + CC(Nc1ncnc2nc[nH]c12)c1cc2cccc(Cl)c2c(=O)n1-c1ccccc1	%	26.7
CC1(C)CCC(Nc2ncc(C(F)(F)F)c(-c3c[nH]c4c(P(C)(C)=O)c(C#N)ccc34)n2)CN1 (stereo not given) + Cc1nc(NC(=O)N2CCCC2C(N)=O)sc1-c1ccnc(C(C)(C)C(F)(F)F)c1	%	16
C=CC(=O)N1CCN(c2nc(=O)n(-c3c(C)ccnc3C(C)C)c3nc(-c4c(O)cccc4F)c(F)cc23)C(C)C1 (stereo not given) + CC(Nc1ccc2c(c1)OCCn1cc(N3C(=O)OCC3C(F)F)nc1-2)C(N)=O	%	29.5
Cn1nccc1Nc1nccc(-c2ccn(C(CO)c3ccc(Cl)c(F)c3)c(=O)c2)n1 (stereo not given) + COc1c(OCCCN2CCOCC2)ccc2c3n(c(=NC(=O)c4cnc(N)nc4)nc12)CCN3	%	1.3
